# ASSAY TEXT: Rapamycin whole blood pharmacokinetics (HPLC-MS/MS, non-compartmental) in dogs with osteosarcoma
# Format: in vivo, dog
# EXPERIMENTAL CONDITIONS: dog; 0.06 mg/kg IM, after first dose, whole blood, median (range), N=7
MEASURED METRIC: Cmax

The recorded Cmax for CO[C@H]1C[C@@H]2CC[C@@H](C)[C@@](O)(O2)C(=O)C(=O)N2CCCC[C@H]2C(=O)O[C@H]([C@H](C)C[C@@H]2CC[C@@H](O)[C@H](OC)C2)CC(=O)[C@H](C)/C=C(\C)[C@@H](O)[C@@H](OC)C(=O)[C@H](C)C[C@H](C)/C=C/C=C/C=C/1C is 7.29 ng/mL

====

# ASSAY TEXT: Rapamycin whole blood pharmacokinetics (HPLC-MS/MS, non-compartmental) in dogs with osteosarcoma
# Type: in vivo, dog
# EXPERIMENTAL CONDITIONS: Mixed Breed (2 dogs), Boxer (1 dog), dog; 0.04 mg/kg IM, after first dose, whole blood, median (range), N=3
MEASURED METRIC: Cmax (ng/mL)
One number for each entry, in ng/mL.

Cmax reading for CO[C@H]1C[C@@H]2CC[C@@H](C)[C@@](O)(O2)C(=O)C(=O)N2CCCC[C@H]2C(=O)O[C@H]([C@H](C)C[C@@H]2CC[C@@H](O)[C@H](OC)C2)CC(=O)[C@H](C)/C=C(\C)[C@@H](O)[C@@H](OC)C(=O)[C@H](C)C[C@H](C)/C=C/C=C/C=C/1C : 2.87

====

# ASSAY TEXT: Rapamycin whole blood pharmacokinetics (HPLC-MS/MS, non-compartmental) in dogs with osteosarcoma
# Type: in vivo, dog
# EXPERIMENTAL CONDITIONS: Mixed Breed (2 dogs), Boxer (1 dog), dog, whole blood, intramuscular; 0.04 mg/kg IM daily, trough Day 9, median (range), N=3; read-out: CD9
MEASURED METRIC: concentration at 9 day (ng/mL)
One number for each entry, in ng/mL.

Field concentration at 9 day (entry CO[C@H]1C[C@@H]2CC[C@@H](C)[C@@](O)(O2)C(=O)C(=O)N2CCCC[C@H]2C(=O)O[C@H]([C@H](C)C[C@@H]2CC[C@@H](O)[C@H](OC)C2)CC(=O)[C@H](C)/C=C(\C)[C@@H](O)[C@@H](OC)C(=O)[C@H](C)C[C@H](C)/C=C/C=C/C=C/1C ) reads 7.92

====

# ASSAY TEXT: Rapamycin whole blood pharmacokinetics (HPLC-MS/MS, non-compartmental) in dogs with osteosarcoma
# Format: in vivo, dog
# EXPERIMENTAL CONDITIONS: dog, whole blood; 0.08 mg/kg IM, after first dose, median (range), N=4
MEASURED METRIC: Tmax (h)
Numbers only, in h.

Query CO[C@H]1C[C@@H]2CC[C@@H](C)[C@@](O)(O2)C(=O)C(=O)N2CCCC[C@H]2C(=O)O[C@H]([C@H](C)C[C@@H]2CC[C@@H](O)[C@H](OC)C2)CC(=O)[C@H](C)/C=C(\C)[C@@H](O)[C@@H](OC)C(=O)[C@H](C)C[C@H](C)/C=C/C=C/C=C/1C [rapamycin, Rapamycin] yields Tmax of 15

====

# ASSAY TEXT: Rapamycin whole blood pharmacokinetics (HPLC-MS/MS, non-compartmental) in dogs with osteosarcoma
# Type: in vivo, dog
# EXPERIMENTAL CONDITIONS: dog, whole blood, intramuscular; 0.08 mg/kg IM, 48 h after first dose, median (range), N=4; read-out: C48h
MEASURED METRIC: concentration at 48 h (ng/mL)
One number for each entry, in ng/mL.

The compound listed as CO[C@H]1C[C@@H]2CC[C@@H](C)[C@@](O)(O2)C(=O)C(=O)N2CCCC[C@H]2C(=O)O[C@H]([C@H](C)C[C@@H]2CC[C@@H](O)[C@H](OC)C2)CC(=O)[C@H](C)/C=C(\C)[C@@H](O)[C@@H](OC)C(=O)[C@H](C)C[C@H](C)/C=C/C=C/C=C/1C has a reported concentration at 48 h of 4.6

====

# ASSAY TEXT: Rapamycin whole blood pharmacokinetics (HPLC-MS/MS, non-compartmental) in dogs with osteosarcoma
# Type: in vivo, dog
# EXPERIMENTAL CONDITIONS: Mixed Breed (2 dogs), Boxer (1 dog), dog, whole blood; 0.04 mg/kg IM, terminal half-life, median (range), N=3; read-out: T1/2 (converted)
MEASURED METRIC: half-life (h)
Give bare numbers, in h.

What the record says about CO[C@H]1C[C@@H]2CC[C@@H](C)[C@@](O)(O2)C(=O)C(=O)N2CCCC[C@H]2C(=O)O[C@H]([C@H](C)C[C@@H]2CC[C@@H](O)[C@H](OC)C2)CC(=O)[C@H](C)/C=C(\C)[C@@H](O)[C@@H](OC)C(=O)[C@H](C)C[C@H](C)/C=C/C=C/C=C/1C [rapamycin, Rapamycin] : half-life is 62.7

====

# ASSAY TEXT: Rapamycin whole blood pharmacokinetics (HPLC-MS/MS, non-compartmental) in dogs with osteosarcoma
# Assay type: in vivo, dog
# EXPERIMENTAL CONDITIONS: dog, whole blood; 0.02 mg/kg IM, terminal half-life, median (range), N=4; read-out: T1/2 (converted)
MEASURED METRIC: half-life (h)
Numbers only, in h.

Item: CO[C@H]1C[C@@H]2CC[C@@H](C)[C@@](O)(O2)C(=O)C(=O)N2CCCC[C@H]2C(=O)O[C@H]([C@H](C)C[C@@H]2CC[C@@H](O)[C@H](OC)C2)CC(=O)[C@H](C)/C=C(\C)[C@@H](O)[C@@H](OC)C(=O)[C@H](C)C[C@H](C)/C=C/C=C/C=C/1C | half-life: 70.8

====

# ASSAY TEXT: Rapamycin whole blood pharmacokinetics (HPLC-MS/MS, non-compartmental) in dogs with osteosarcoma
# Type: in vivo, dog
# EXPERIMENTAL CONDITIONS: Mixed Breed (2 dogs), Boxer (1 dog), dog; 0.04 mg/kg IM, after first dose, whole blood, median (range), N=3; read-out: AUC0–48
MEASURED METRIC: AUC(0-t) (ng·h/mL)
Numbers only, in ng·h/mL.

Entry CO[C@H]1C[C@@H]2CC[C@@H](C)[C@@](O)(O2)C(=O)C(=O)N2CCCC[C@H]2C(=O)O[C@H]([C@H](C)C[C@@H]2CC[C@@H](O)[C@H](OC)C2)CC(=O)[C@H](C)/C=C(\C)[C@@H](O)[C@@H](OC)C(=O)[C@H](C)C[C@H](C)/C=C/C=C/C=C/1C [rapamycin, Rapamycin] ; AUC(0-t) = 105

====

# ASSAY TEXT: Rapamycin whole blood pharmacokinetics (HPLC-MS/MS, non-compartmental) in dogs with osteosarcoma
# Format: in vivo, dog
# EXPERIMENTAL CONDITIONS: Mixed Breed (2 dogs), Boxer (1 dog), dog, whole blood, intramuscular; 0.04 mg/kg IM, 48 h after first dose, median (range), N=3; read-out: C48h
# Experimental: Subsequent doses were administered on days 3–8. Additional pharmacokinetic samples were obtained on days 8 (192h, day of definitive resection) and 9 (hr 216, after last day of dosing) and 15 (360 hr). […] Whole blood was transferred to cyrovials and stored at −80°C until analysis. […] The eluate was analyzed using HPLC with MS/MS detection. […] Clinical sample results were calculated using peak area ratios and calibration curves were generated using a weighted (1/x^2) linear least-squares regression. […]
MEASURED METRIC: concentration at 48 h (ng/mL)
Answers are plain numbers, in ng/mL.

The compound listed as CO[C@H]1C[C@@H]2CC[C@@H](C)[C@@](O)(O2)C(=O)C(=O)N2CCCC[C@H]2C(=O)O[C@H]([C@H](C)C[C@@H]2CC[C@@H](O)[C@H](OC)C2)CC(=O)[C@H](C)/C=C(\C)[C@@H](O)[C@@H](OC)C(=O)[C@H](C)C[C@H](C)/C=C/C=C/C=C/1C has a reported concentration at 48 h of 1.86

====

# ASSAY TEXT: Rapamycin whole blood pharmacokinetics (HPLC-MS/MS, non-compartmental) in dogs with osteosarcoma
# Type: in vivo, dog
# EXPERIMENTAL CONDITIONS: both sexes, dog, whole blood; dogs, IM; read-out: terminal half-life
# Method: Subsequent doses were administered on days 3–8. Additional pharmacokinetic samples were obtained on days 8 (192h, day of definitive resection) and 9 (hr 216, after last day of dosing) and 15 (360 hr). […] Whole blood was transferred to cyrovials and stored at −80°C until analysis. […] The eluate was analyzed using HPLC with MS/MS detection. […] Clinical sample results were calculated using peak area ratios and calibration curves were generated using a weighted (1/x^2) linear least-squares regression. […]
MEASURED METRIC: half-life

Record summary for CO[C@H]1C[C@@H]2CC[C@@H](C)[C@@](O)(O2)C(=O)C(=O)N2CCCC[C@H]2C(=O)O[C@H]([C@H](C)C[C@@H]2CC[C@@H](O)[C@H](OC)C2)CC(=O)[C@H](C)/C=C(\C)[C@@H](O)[C@@H](OC)C(=O)[C@H](C)C[C@H](C)/C=C/C=C/C=C/1C [rapamycin, Rapamycin] : reported half-life = > 60 h
